Assay: Oral bioavailability in C57Bl6 mouse at 10 mg/kg
Format: ADME, organism-based
Conditions: in vivo
PROPERTY LABEL: bioavailability
# output: numeric value plus its unit

Give one value of bioavailability per listed compound.
1. CC#C[C@H]1CN(S(=O)(=O)c2ccc(N)nc2)CCN1c1ccc(C(O)(C(F)(F)F)C(F)(F)F)cc1
2. CC#C[C@H]1CN(S(=O)(=O)c2ccc(N)nc2)CCN1c1ccc([C@@](C)(O)C(F)(F)F)cc1

Found:
["40%", "39%"]

###

Experiment: Oral bioavailability in rat at 10 mg/kg
Format: ADME, organism-based
Conditions: in vivo
Could you label it Met if measured bioavailability is 70% or higher, and Not met otherwise?

Worked set:
{"SMILES REPRESENTATION": "CC#C[C@H]1CN(S(=O)(=O)c2ccc(N)nc2)CCN1c1ccc([C@](C)(O)C(F)(F)F)cc1", "CLASSIFICATION": "Not met"}
{"SMILES REPRESENTATION": "CC#C[C@H]1CN(S(=O)(=O)c2ccc(N)nc2)CCN1c1ccc(C(O)(C(F)(F)F)C(F)(F)F)cc1", "CLASSIFICATION": "Met"}
{"SMILES REPRESENTATION": "C[C@H]1COCCN1C[C@H]1CN(S(=O)(=O)c2cccs2)CCN1c1ccc([C@@](C)(O)C(F)(F)F)cc1", "CLASSIFICATION": "Not met"}

Next molecule, please.
Lookup: Entry "CC#C[C@H]1CN(S(=O)(=O)c2ccc(N)nc2)CCN1c1ccc([C@@](C)(O)C(F)(F)F)cc1" : is its bioavailability no less than 70%?
Found: Met

###

Kindly supply the reported microsomal CLint at 1 µM values for the records listed here.
Test: Intrinsic clearance in rat liver microsomes at 1 uM after 30 mins in presence of NADPH
Format: ADME
Conditions: read-out: CLH
Give bare numbers, in µL/min/mg.

{"COMPOUND": "C[C@](O)(c1ccc(N2CCN(S(=O)(=O)c3cccs3)C[C@@H]2CN2[C@@H]3COC[C@H]2[C@@H](O)C3)cc1)C(F)(F)F", "VALUE REPORTED": 112}

Field: microsomal CLint at 1 µM. Fill in for each record below.
1. C[C@](O)(c1ccc(N2CCN(S(=O)(=O)c3cccs3)C[C@@H]2CN2[C@H]3COC[C@@H]2[C@H](O)C3)cc1)C(F)(F)F
2. C[C@@](O)(c1ccc(N2CCN(S(=O)(=O)c3cccs3)C[C@@H]2CN2[C@@H]3COC[C@H]2[C@@H](O)C3)cc1)C(F)(F)F
3. CC(O)(c1ccc(N2CCN(S(=O)(=O)c3cccs3)C[C@@H]2CN2CC3(COC3)C2)cc1)C(F)(F)F (mixture of isomers)
4. CC1CS(=O)(=O)CCN1C[C@H]1CN(S(=O)(=O)c2cccs2)CCN1c1ccc(C(C)(O)C(F)(F)F)cc1 (mixture of isomers)
5. CC(O)(c1ccc(N2CCN(S(=O)(=O)c3cccs3)C[C@@H]2CN2[C@H]3COC[C@H]2[C@H](O)C3)cc1)C(F)(F)F (mixture of isomers)
6. O=S(=O)(c1cccs1)N1CCN(c2ccc(C(O)(C(F)(F)F)C(F)(F)F)cc2)CC1

Found:
114
155
120
93
321
150
